Value source: ChEMBL document CHEMBL5584215

- experimentalSystem: Protein kinase C delta type (Homo sapiens, UniProt Q05655)
- Sequence (Q05655 whole entry): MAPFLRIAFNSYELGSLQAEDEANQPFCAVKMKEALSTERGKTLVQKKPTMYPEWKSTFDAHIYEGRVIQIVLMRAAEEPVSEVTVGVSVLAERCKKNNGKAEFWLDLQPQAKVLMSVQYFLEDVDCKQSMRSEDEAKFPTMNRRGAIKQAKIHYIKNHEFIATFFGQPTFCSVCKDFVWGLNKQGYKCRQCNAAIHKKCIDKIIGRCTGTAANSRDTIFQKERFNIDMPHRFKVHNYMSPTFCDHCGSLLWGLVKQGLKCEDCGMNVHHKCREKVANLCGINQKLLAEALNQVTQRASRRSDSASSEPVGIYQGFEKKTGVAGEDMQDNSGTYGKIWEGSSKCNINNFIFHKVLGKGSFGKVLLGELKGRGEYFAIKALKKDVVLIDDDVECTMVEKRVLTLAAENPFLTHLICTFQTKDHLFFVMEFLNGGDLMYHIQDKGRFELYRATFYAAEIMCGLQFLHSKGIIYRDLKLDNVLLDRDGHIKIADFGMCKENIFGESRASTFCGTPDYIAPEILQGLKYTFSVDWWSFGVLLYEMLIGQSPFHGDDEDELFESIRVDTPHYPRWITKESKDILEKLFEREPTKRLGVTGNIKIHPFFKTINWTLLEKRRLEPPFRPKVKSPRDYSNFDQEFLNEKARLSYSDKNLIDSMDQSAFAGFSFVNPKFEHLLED
- protocolSummary: Binding affinity to PKCdelta (unknown origin) assessed as inhibition constant
A collection of compounds and their measured pKi
Lab note — pKi values are minus log10 of concentrations in M.

CC(C)[C@H]1C(=O)N[C@H](CO)Cc2cn(C(C)C)c3cccc(c23)N1C; 7.49

// returns reported pKi for input CC(=O)n1cc2c3c(cccc31)N(C)[C@@H](C(C)C)C(=O)N[C@H](CO)C2
7.03
